Some compounds, each annotated with its measured IC50.
molecular target: Tie-2 (Homo sapiens, UniProt Q02763)
Sequence (Q02763 23-1124): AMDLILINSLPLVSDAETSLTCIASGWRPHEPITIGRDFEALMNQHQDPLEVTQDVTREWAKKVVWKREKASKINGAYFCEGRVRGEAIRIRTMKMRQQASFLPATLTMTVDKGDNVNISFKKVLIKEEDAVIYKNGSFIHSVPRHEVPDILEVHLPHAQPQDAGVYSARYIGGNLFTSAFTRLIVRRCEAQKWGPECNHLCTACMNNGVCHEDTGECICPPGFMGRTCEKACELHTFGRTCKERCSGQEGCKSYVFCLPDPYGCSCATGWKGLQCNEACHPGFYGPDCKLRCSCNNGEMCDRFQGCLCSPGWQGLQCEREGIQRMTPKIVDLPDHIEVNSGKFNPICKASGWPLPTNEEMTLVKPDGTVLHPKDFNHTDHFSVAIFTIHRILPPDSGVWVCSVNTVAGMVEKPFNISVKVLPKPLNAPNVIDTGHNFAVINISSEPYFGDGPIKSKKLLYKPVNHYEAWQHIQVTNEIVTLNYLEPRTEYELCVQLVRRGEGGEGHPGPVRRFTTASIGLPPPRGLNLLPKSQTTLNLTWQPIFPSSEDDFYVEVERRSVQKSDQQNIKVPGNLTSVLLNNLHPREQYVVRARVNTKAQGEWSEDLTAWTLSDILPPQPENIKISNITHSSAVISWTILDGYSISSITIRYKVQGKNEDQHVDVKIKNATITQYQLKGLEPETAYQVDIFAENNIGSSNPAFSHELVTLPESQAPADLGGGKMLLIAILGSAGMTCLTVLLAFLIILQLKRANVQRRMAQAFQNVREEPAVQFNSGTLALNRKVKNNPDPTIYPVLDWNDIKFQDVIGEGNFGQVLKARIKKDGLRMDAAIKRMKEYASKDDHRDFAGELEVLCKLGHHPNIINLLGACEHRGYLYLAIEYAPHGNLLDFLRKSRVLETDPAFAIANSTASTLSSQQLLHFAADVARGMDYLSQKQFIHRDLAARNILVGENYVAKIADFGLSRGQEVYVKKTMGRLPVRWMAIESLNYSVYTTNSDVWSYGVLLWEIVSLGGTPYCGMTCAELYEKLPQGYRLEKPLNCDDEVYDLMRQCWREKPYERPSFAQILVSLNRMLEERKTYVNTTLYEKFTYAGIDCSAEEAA

Provide IC50, system Tie-2 (Homo sapiens, UniProt Q02763), entry O=C(Cc1cccc2ccccc12)N(CCn1nc(-c2ccncc2)nc1-c1ccccc1)C1CCCC1 [Entry 50] < 50 nM

Next:
Provide IC50, system Tie-2 (Homo sapiens, UniProt Q02763), entry Cc1nc(-c2ccncc2)nn1CCN(C(=O)Cc1cccc2ccccc12)C1CCOCC1 [Entry 171] 50 to 1000 nM

Provide IC50, system Tie-2 (Homo sapiens, UniProt Q02763), entry COc1ccc(-c2nc(-c3ccncc3)nn2CCN(C(=O)Nc2ccc(Oc3ccccc3)cc2)C2CCCC2)cc1Cl [Entry 147] ≥ 10000 nM

Provide IC50, system Tie-2 (Homo sapiens, UniProt Q02763), entry COc1ccc(-c2nc(-c3ccncc3)nn2CCN(C(=O)N[C@@H](C)c2ccccc2)C2CCCC2)cc1Cl [Entry 125] 1000 to 10000 nM

Where do these numbers come from? They come from patent US8178570B2.
